Parameter Measured: logP

[Q] Give reported logP value for O=C(OC[C@H]1OC(O)[C@@H]2OC(=O)c3cc(O)c(O)c(O)c3-c3c(cc(O)c(O)c3O)C(=O)O[C@H]2[C@@H]1OC(=O)c1cc(O)c(O)c(O)c1-c1c(O)c(O)c2oc(=O)c3cc(O)c(O)c4oc(=O)c1c2c43)c1cc(O)c(O)c(O)c1 (stereo not given in full)
[A] -2.15

[Q] Output measured logP for this item: O=C(O[C@H]1Cc2c(O)cc(O)cc2O[C@H]1c1ccc(O)c(O)c1)c1cc(O)c(O)c(O)c1
[A] 1.68

[Q] Using the record for O=C(O[C@@H]1COC(=O)c2cc(O)c(O)c(O)c2-c2c(cc(O)c(O)c2O)C(=O)OC1[C@@H]1OC(=O)c2cc(O)c(O)c(O)c2-c2c(O)c(O)c(O)c3c2C(=O)O[C@H]1[C@H]3O)c1cc(O)c(O)c(O)c1 (stereo not given in full) , state its measured logP.
[A] 1.28

[Q] Give a short answer stating reported logP for O=C(O[C@@H]1O[C@H](CO)[C@@H](O)[C@H](O)[C@H]1O)c1cc(O)c(O)c(O)c1 .
[A] -1.89

[Q] Tell me its logP given O=C1OC[C@H]2OC(O)[C@@H]3OC(=O)c4cc(O)c(O)c(O)c4-c4c(cc(O)c(O)c4O)C(=O)O[C@H]3[C@@H]2OC(=O)c2cc(O)c(O)c(O)c2-c2c1cc(O)c(O)c2O (stereo not given in full) as the entry.
[A] -2.1

[Q] Please report the measured logP for O=C(O[C@@H]1O[C@@H]2COC(=O)c3cc(O)c(O)c(O)c3-c3c(cc(O)c(O)c3O)C(=O)O[C@H]2[C@@H]2OC(=O)c3cc(O)c(O)c(O)c3-c3c(cc(O)c(O)c3O)C(=O)O[C@@H]12)c1cc(O)c(O)c(O)c1
[A] -1.07

[Q] Give the reported value of logP for this record: O=c1c(O[C@@H]2O[C@H](CO)[C@@H](O)[C@H](O)[C@H]2O)c(-c2ccc(O)c(O)c2)oc2cc(O)cc(O)c12
[A] 0.7

[Q] Given O=C(O[C@@H]1O[C@@H]2COC(=O)c3cc(O)c(O)c(O)c3-c3c(cc(O)c(O)c3O)C(=O)O[C@H]([C@H]1O)[C@@H]2O)c1cc(O)c(O)c(O)c1 , respond with its logP.
[A] -1.19

[Q] Specify measured logP for COc1cc(O)c2c(=O)cc(C)oc2c1 .
[A] 1

[Q] Fill in reported logP for this entry: O=C(OCC1O[C@@H](O)C(O)(COC(=O)c2cc(O)c(O)c(O)c2)C1OC(=O)c1cc(O)c(O)c(O)c1)c1cc(O)c(O)c(O)c1 (stereo not given in full)
[A] 0.61

[Q] Let me know recorded logP for O=C(OCC1OC(OC(=O)c2cc(O)c(O)c(O)c2)C(O)C(O)C1O)c1cc(O)c(O)c(O)c1 (stereo not given) , thanks.
[A] -0.33

[Q] Could you please provide reported logP for Oc1cc(O)c2c(c1)OC(c1ccc(O)c(O)c1)C(O)C2c1c(O)cc(O)c2c1O[C@H](c1ccc(O)c(O)c1)[C@@H](O)C2 (stereo in doubt) ? Thanks!
[A] -0.52

[Q] Provide logP value for the following compound: O=C(O[C@@H]1Cc2c(O)cc(O)cc2O[C@@H]1c1cc(O)c(O)c(O)c1)c1cc(O)c(O)c(O)c1
[A] 1.08

[Q] Note down logP recorded for O=CC1OC(=O)c2cc(O)c(O)c(O)c2-c2c(cc(O)c(O)c2O)C(=O)OC1C1OC(=O)c2cc(O)c(O)c(O)c2-c2c(O)c(O)c3oc(=O)c4c(c(O)c(O)c5oc(=O)c2c3c54)-c2c(cc(O)c(O)c2O)C(=O)OCC1O (stereo not given)
[A] -2.7

[Q] Answer with the recorded logP of O=CC(O)(COC(=O)c1cc(O)c(O)c(O)c1)C(O)C(O)COC(=O)c1cc(O)c(O)c(O)c1 (stereo not given) only.
[A] -0.35
